# test-description: reduction of polyQ htt aggregates in cells – imaging, exon1htt(103Q)mCFP cells, high-content imaging, primary screen (AID 483);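 further: compound exposure lasted 3 days before fixation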
# test-parameters: exon1htt(103Q)mCFP cell line, aggregate imaging, at 2 µM; hits give high values
Listing: inhibition of aggregation of selected molecules

# molecule, u, inhibition of aggregation
records = [
    ("COc1ccccc1CNC(=O)C1CCN(S(=O)(=O)N2CCCCC2)CC1", "%", 4.5),
    ("COc1ccccc1-n1c(C)nnc1SCC(N)=O", "%", 7.3),
    ("COc1ccc(-c2noc(COc3ccc4ccccc4c3Br)n2)cc1OC", "%", -29.8),
    ("Cn1c(Cc2cccs2)nnc1SCC(=O)N1CCc2ccccc21", "%", 14.1),
    ("Cn1c(=O)cc(OCC(=O)N2CCN(c3cccc(C(F)(F)F)c3)CC2)c2ccccc21", "%", -13.4),
    ("O=C1NCCCc2c1no[n+]2[O-]", "%", 19.4),
    ("Nc1c(Sc2ccccc2)c(=O)[nH]c(=O)n1Cc1ccccc1", "%", -8.5),
    ("CCCC(C(=O)NCc1ccco1)N(C(=O)CNS(=O)(=O)c1ccc(Cl)cc1)C1CCCC1 (centres undefined)", "%", -2.5),
    ("CCOc1ccccc1N1CCN(c2nc(N)c(C#N)c(CC#N)c2C#N)CC1", "%", -18.6),
    ("COc1ccc(C)cc1-n1nnnc1SCC(=O)NC(=O)NCc1ccco1", "%", 25),
    ("O=C(NCc1ccccn1)c1ccc2nc(-c3ccco3)c(-c3ccco3)nc2c1", "%", -52.7),
    ("COc1ccccc1-c1nc(C(F)(F)F)c(OC)o1", "%", -0.2),
    ("COc1ccc(-c2[nH]nc3c2C(c2ccccc2OC(=O)N2CCOCC2)C(C#N)=C(N)O3)cc1 (centres undefined)", "%", -9.9),
    ("CCCCc1ccc(NC(=O)COCC)cc1", "%", -8.1),
    ("O=C(NCCO)c1scc2c1OCCO2", "%", 7.6),
    ("CC(C)NC(=O)c1ccccc1NC(=O)c1ccccc1N(C)S(C)(=O)=O", "%", 6.8),
    ("COCCOc1nc2ccccc2nc1C", "%", 8.5),
    ("CCNC(=O)CC1C(=O)N(c2ccccc2)C(=O)N1Cc1ccc(OC)cc1 (centres undefined)", "%", -1.6),
    ("Cc1cccc(N(CC(N)=O)S(C)(=O)=O)c1C", "%", 6.8),
    ("Cc1nc2cccc(C(=O)NC3CCCCC3)c2o1", "%", -19.6),
    ("Clc1ccccc1-c1nnc2sc(-c3ccccn3)nn12", "%", 24.3),
    ("COc1ccccc1-c1c(C)nn2c(N3CCC4(CC3)OCCO4)cc(C)nc12", "%", -9.7),
    ("CCOc1ccccc1CN1C(=O)c2ccccc2C1C(=O)NCC1CCCO1 (centres undefined)", "%", 6.8),
    ("Oc1c(I)cc(Cl)c2cccnc12", "%", -1.7),
]

###

# subject-of-test: Voltage-gated potassium channel subunit beta-2 (Rattus norvegicus)
# test-description: enhancers of rat Kvbeta2 NADPH turnover – biochemical, NADPH fluorescence, primary screen (AID 623);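 further: fluorescence intensity change per second fitted from 20 to 320 s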
# test-parameters: Recombinant KvBeta, NADPH fluorescence decrease slope, 10 min; at 10 µM; hits give low values
Listing: NADPH fluorescence slope of selected compounds
measured-metric: NADPH fluorescence slope

# compound, experimental-value
rows = [
    ("COc1ccc(-c2cc(C(F)F)n3ncc(C(=O)NCC4CCCO4)c3n2)cc1 (stereo unspecified)", "-2.9e-05"),
    ("CCOC(=O)c1sc(NC(=O)CSc2nc3c(cc2C#N)CCC3)c(C#N)c1C", "2.2e-05"),
    ("Nc1nc(-c2ccc(Cl)cc2)cc(C(F)(F)F)n1", "-1.9e-07"),
    ("CC(O)CN(Cc1cccc(Cl)c1)CC(C)O (stereo unspecified)", "1.1e-05"),
    ("COC(=O)CN(c1ccc2c(c1)OCO2)S(C)(=O)=O", "-2.7e-06"),
    ("O=C(COC(=O)Cc1cccc(C(F)(F)F)c1)NCC1CCCO1 (stereo unspecified)", -0.000214),
    ("Clc1ccccc1OCc1nn2c(-c3ccncc3)nnc2s1", "-6.4e-05"),
    ("Cc1cc2c(c(=O)n1CCc1ccccc1)C(C(C)C)C(C#N)=C(N)O2 (stereo unspecified)", "-7.9e-05"),
    ("CN(Cc1ccccc1)Cc1nc2c([nH]1)c(=O)[nH]c(=O)n2C", -0.000115),
    ("CC(C)(C)n1ncc2c(=O)n(CC(=O)NCCc3ccccc3)cnc21", "1.3e-05"),
    ("COc1ccccc1-n1c(C)nnc1SCC(N)=O", "-1.4e-05"),
]
